Data credit: ChEMBL document CHEMBL4138101

assay: Cytotoxicity against Swiss albino mouse peritoneal macrophages after 24 hrs by PrestoBlue dye based assay; type: cell-based, Peritoneal macrophage; conditions: read-out: LC50
Output true for records whose CC50 at 24 h is lower than 40 µM, false for records at or above 40 µM.

> print(dat)
                    substancesmiles  assignedclass
1  O=C1C(Cl)=C(Cl)C(=O)c2c(I)cccc21           true
2       CC(C)(C)C1=CC(=O)C(I)=CC1=O           true
3      CC1=CC(=O)c2c(ccc(I)c2O)C1=O           true
4        COc1c(I)ccc2c1C(=O)C=CC2=O           true
5      CC(C)(C)C1=CC(=O)C(Br)=CC1=O          false
6          O=C1C=CC(=O)c2c(I)cccc21           true
